Target: T1, ARM repeat domain of human β-catenin (residues 134–671) (human, UniProt P35222 134-671)
T1 construct: β-catenin, human, ARM repeat domain, residues 134–671; Plasmid was a gift from W.I. Weis; source: E. coli C41, purified (glutathione-Sepharose 4B, thrombin cleavage on resin, Mono-Q)
T1 sequence (looked up): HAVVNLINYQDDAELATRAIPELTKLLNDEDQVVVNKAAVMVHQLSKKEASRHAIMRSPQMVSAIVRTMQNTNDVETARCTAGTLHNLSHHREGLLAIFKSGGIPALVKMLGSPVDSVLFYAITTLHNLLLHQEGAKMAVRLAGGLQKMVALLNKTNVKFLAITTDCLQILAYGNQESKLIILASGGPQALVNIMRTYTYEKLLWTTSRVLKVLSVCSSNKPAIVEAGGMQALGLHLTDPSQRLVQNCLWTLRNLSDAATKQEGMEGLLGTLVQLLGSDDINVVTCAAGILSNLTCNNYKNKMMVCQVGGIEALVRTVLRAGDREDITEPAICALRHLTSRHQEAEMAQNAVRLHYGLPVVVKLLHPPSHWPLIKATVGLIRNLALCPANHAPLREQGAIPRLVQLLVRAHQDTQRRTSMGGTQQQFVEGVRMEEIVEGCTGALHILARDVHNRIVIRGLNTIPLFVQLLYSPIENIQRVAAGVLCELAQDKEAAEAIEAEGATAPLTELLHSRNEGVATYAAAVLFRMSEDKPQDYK
Experiment: stopped-flow fluorescence kinetics (dissociation); pre-formed 1:1 complex (200 nM) of labelled TCF7L2 and β-catenin mixed 1:1 with 50-times molar excess of unlabelled TCF7L2 (10 µM); PBS, 1 mM DTT, 15 °C; fitted to sums of exponential phases
Conditions: both partners purified
No end group written: not given here.
endpoint name: koff,minor (minor fast phase of biphasic dissociation) (s⁻¹)
# unit: s⁻¹ | format: bare number

// sample TCF7L2 (1–54) S31C I19A, fluorescein-labelled (domain or fragment, UniProt Q9NQB0 1-54, looked up, One extra serine is left behind after thrombin cleavage of the tag; also called TCF7L2 I19A; source: E. coli C41, purified (Ni-NTA, thrombin cleavage, Superdex 75), labelled with fluorescein maleimide) MPQLNGGGGDDLGANDELASFKDEGEQEEKC(fluorescein maleimide)SENSSAERDLADVKSSLVNESET , its koff,minor (minor fast phase of biphasic dissociation) was 0.207

// sample TCF7L2 (1–54) S31C F21A, fluorescein-labelled (domain or fragment, UniProt Q9NQB0 1-54, looked up, One extra serine is left behind after thrombin cleavage of the tag; source: E. coli C41, purified (Ni-NTA, thrombin cleavage, Superdex 75), labelled with fluorescein maleimide) MPQLNGGGGDDLGANDELISAKDEGEQEEKC(fluorescein maleimide)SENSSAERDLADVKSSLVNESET , its koff,minor (minor fast phase of biphasic dissociation) was 0.423

// sample TCF7L2 (1–54) S31C V44A, fluorescein-labelled (domain or fragment, UniProt Q9NQB0 1-54, looked up, One extra serine is left behind after thrombin cleavage of the tag; source: E. coli C41, purified (Ni-NTA, thrombin cleavage, Superdex 75), labelled with fluorescein maleimide) MPQLNGGGGDDLGANDELISFKDEGEQEEKC(fluorescein maleimide)SENSSAERDLADAKSSLVNESET , its koff,minor (minor fast phase of biphasic dissociation) was 0.498

// sample TCF7L2 (1–54) S31C L41A, fluorescein-labelled (domain or fragment, UniProt Q9NQB0 1-54, looked up, One extra serine is left behind after thrombin cleavage of the tag; source: E. coli C41, purified (Ni-NTA, thrombin cleavage, Superdex 75), labelled with fluorescein maleimide) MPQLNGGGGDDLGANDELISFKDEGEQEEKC(fluorescein maleimide)SENSSAERDAADVKSSLVNESET , its koff,minor (minor fast phase of biphasic dissociation) was 0.616

The reported numbers originate from paper PMC8228192.
